Provenance of the data: PubChem BioAssay

Reported values of z-score for individual entries
Assay: MM1S cell viability effects, profiling panel, calcein-AM fluorescence, 48 h, basal (AID 1165);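 note: viability of MM1S multiple myeloma cells under basal unstimulated conditions; test concentration not given here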
Settings: higher = more signal

# example entries with known answers
INSERT INTO assay_data (compound, observable, result) VALUES
  ('C=CCNC(=O)[C@H]1[C@@H]2C(=O)O[C@@H](c3ccccc3)[C@@H](c3ccccc3)N2[C@@H](c2ccc(O)cc2)[C@]12C(=O)N(C(=O)OCCOC)c1ccc(C#CCC(C(=O)OC)C(=O)OC)cc12', 'z-score', -2.93),
  ('COc1cc(NN2C(C(O)c3cc(OC)c(OC)c(OC)c3)C=CC3C(=O)N(c4ccccc4)C(=O)C32)cc(OC)c1OC (centres undefined)', 'z-score', -0.881),
  ('COCC(=C=CC[C@@H](O)c1cccc(OCCO)c1)CCO', 'z-score', 0.55);

For O=C1O[C@H](c2ccccc2)[C@H](c2ccccc2)N2[C@H]1[C@@H](C(=O)N1CCCCCCC1)[C@]1(C(=O)Nc3ccc(C#CC4(O)CCCCCC4)cc31)[C@H]2c1ccc(O)cc1 , what is its reported z-score?
-0.845

For COC(=O)c1c2oc(c1C(=O)OC)C(=O)N1CCC[C@H]1Cn1nncc1CN(Cc1ccccc1)C(=O)N[C@H](CO)CC2 , what is its reported z-score?
0.829

For COC(=O)[C@@]1(Cc2ccccc2CN=[N+]=[N-])N=C(c2ccc(OCCCO)cc2)O[C@H]1c1ccccc1CN=[N+]=[N-] , what is its reported z-score?
-3.56

For CCCCC(=O)N(CCN1CCOCC1)[C@@H]1CC(C(=O)NCCO)=C[C@H](Oc2c(I)cc(CO)cc2OC)[C@H]1O , what is its reported z-score?
0.135

For CC(C)CNC(=O)[C@@H]1c2ccccc2C(=O)N(C2CCCCC2)[C@H]1c1ccc(CO)cc1 , what is its reported z-score?
0.0402

For C=C[C@@H](OC)[C@H](OC(=O)Nc1ccc(SC)cc1)c1ccc(OCCO)cc1 , what is its reported z-score?
-2.08

For CC(C)C[C@@H]1NC(=O)[C@H]2C[C@@H](C(=O)NCCCCCN)[C@@H](c3cccc(OCCO)c3)N2C1=O , what is its reported z-score?
0.64

For C=CCC(OC(C)=O)[C@@H]1[C@@H](N(Cc2ccc(-c3cccc(C(F)(F)F)c3)o2)C(=O)Cc2ccc(OC)cc2)c2cc(OCCCO)ccc2N1C(=O)Cc1ccc2ccccc2c1 (some centres undefined) , what is its reported z-score?
-0.499
